- System under test: Neuropilin-1 (Homo sapiens)
- Experiment notes: blockers of CendR peptide binding to NRP-1 – biochemical, FP and AlphaScreen panel, dose response (AID 651650)
- Test conditions: NRP-1 b1b2 / RPARPAR peptide binding, FP or AlphaScreen; run 1, at 100 µM (top of the series)
Measured inhibition values are reported for all entries that follow.
Answer shape: numeric part, then the unit.

>  <Compound>
CCCCN(c1ccccc1)S(=O)(=O)c1ccc2c(c1)CCN2C(=O)CCC(=O)O

>  <inhibition>
8.36%

$$$$
>  <Compound>
C[C@@H](NC(=O)c1nc[nH]c1C(=O)NCc1ccccc1)c1ccccc1

>  <inhibition>
23.1%

$$$$

(Q) Would you please give the reported inhibition of COC(=O)n1c(=O)oc2ccccc21 with Neuropilin-1 (Homo sapiens)?
(A) 50%

(Q) Tell me inhibition of Cc1c(CC(=O)O)c(=O)oc2cc(OCc3ccc(F)cc3Cl)ccc12 when tested on Neuropilin-1 (Homo sapiens).
(A) -12.1%

(Q) Write down measured inhibition (Neuropilin-1 (Homo sapiens)) for this compound. CCn1c(N)c(C(=O)NCc2cccnc2)sc1=S
(A) 100%

* * *

- System under test: Neuropilin-1 (Homo sapiens) (UniProt O14786)
- Sequence (O14786 whole entry, looked up): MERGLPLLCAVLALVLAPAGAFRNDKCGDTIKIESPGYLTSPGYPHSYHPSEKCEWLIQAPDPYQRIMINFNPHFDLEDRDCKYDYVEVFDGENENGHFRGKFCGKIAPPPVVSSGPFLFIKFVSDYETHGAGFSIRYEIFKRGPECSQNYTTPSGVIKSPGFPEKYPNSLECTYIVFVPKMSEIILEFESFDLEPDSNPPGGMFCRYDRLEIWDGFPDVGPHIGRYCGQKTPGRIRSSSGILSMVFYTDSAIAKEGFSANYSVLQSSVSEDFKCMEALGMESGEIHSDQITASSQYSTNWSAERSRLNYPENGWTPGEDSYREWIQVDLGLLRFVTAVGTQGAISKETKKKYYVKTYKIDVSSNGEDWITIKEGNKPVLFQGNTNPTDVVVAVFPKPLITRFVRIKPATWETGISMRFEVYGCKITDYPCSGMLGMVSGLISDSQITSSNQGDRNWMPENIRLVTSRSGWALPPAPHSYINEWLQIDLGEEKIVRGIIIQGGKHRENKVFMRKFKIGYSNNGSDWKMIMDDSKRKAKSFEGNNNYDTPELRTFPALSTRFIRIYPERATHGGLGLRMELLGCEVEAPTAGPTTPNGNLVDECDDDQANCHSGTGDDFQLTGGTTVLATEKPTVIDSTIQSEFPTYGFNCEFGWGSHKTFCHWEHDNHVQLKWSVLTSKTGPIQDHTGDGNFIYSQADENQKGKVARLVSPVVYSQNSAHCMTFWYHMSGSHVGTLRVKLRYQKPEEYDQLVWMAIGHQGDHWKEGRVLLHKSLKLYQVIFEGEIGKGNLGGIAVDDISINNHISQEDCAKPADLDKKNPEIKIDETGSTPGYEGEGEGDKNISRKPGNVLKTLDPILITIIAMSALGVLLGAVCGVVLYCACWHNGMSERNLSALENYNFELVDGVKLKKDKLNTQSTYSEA
- Experiment notes: blockers of CendR peptide binding to NRP-1 – biochemical, FP and AlphaScreen panel, dose response (AID 651650)
- Test conditions: NRP-1 b1b2 / RPARPAR peptide binding, FP or AlphaScreen; run 1, at 100 µM (top of the series)
Experimental endpoint: inhibition (%)
Field format: number, assumed %, no unit text.

Some solved cases for reference:
>  <Compound>
Cc1ccc(Cl)cc1N1CCN(C(=O)c2cccc3c(=O)c(C)c(-c4ccccc4)oc23)CC1

>  <Experimental endpoint>
inhibition

>  <Recorded measurement>
20.7

$$$$
>  <Compound>
CC(C)C(N)c1csc(NC(=O)Nc2cccc(C(F)(F)F)c2)n1 (stereo unspecified)

>  <Experimental endpoint>
inhibition

>  <Recorded measurement>
28.7

$$$$

(Q) Determine from records and report inhibition for C=CCC1(CC=C)CCCN1C(=O)c1cc(COc2cccc(OC)c2)on1
(A) 39.2

(Q) State its inhibition: Nc1ccc(C(=O)Nc2ccc(Nc3ccncc3)cc2)c([N+](=O)[O-])c1
(A) 102

(Q) Respond only with inhibition recorded for C=C1CCN([C@@H](CC(C)C)C(=O)NCCC(C)C)S(=O)(=O)c2ccccc21
(A) 35.9

(Q) Quickly give me recorded inhibition for COC(=O)CCCC1=CC2=CC(=O)C(C)(OC(=O)c3cccs3)C(=O)C2=CN1CCCCO (stereo unspecified)
(A) 38.6

* * *

- System under test: Neuropilin-1 (Homo sapiens) (UniProt O14786)
- Experiment notes: blockers of CendR peptide binding to NRP-1 – biochemical, FP and AlphaScreen panel, dose response (AID 651650)
- Test conditions: NRP-1 b1b2 / RPARPAR peptide binding, FP or AlphaScreen; run 1, at 100 µM (top of the series)
We use 40% as the dividing line for inhibition: on or above the line is true, below is false.

Answered cases to consult:
>  <Compound>
CC(C)COC(=O)C1C2C=CC3(CN(C(C)c4ccc(Br)cc4)C(=O)C13)O2 (stereo not given)

>  <Category label>
true

$$$$
>  <Compound>
CCCN=C1N/C(=C\c2ccco2)C(=O)N1c1ccccc1

>  <Category label>
false

$$$$
>  <Compound>
CSc1nc2ccccc2c(=O)n1C1CCOC(C)(C)C1 (stereo not given)

>  <Category label>
false

$$$$
>  <Compound>
COc1ccc(C(C(=O)NC(C)(C)C)N(C(=O)CCC(=O)Nc2cc(C)on2)c2c(C)cccc2C)cc1 (stereo not given)

>  <Category label>
true

$$$$

(Q) Reported inhibition at or above 40%? Cc1ccccc1Oc1ccc2c(c1)[C@@H]1C[C@H](N(C)C(=O)Nc3cc(Cl)cc(Cl)c3)[C@H]([C@H](C)O)C(=O)N1CC2
(A) true
